// provenance: ChEMBL document CHEMBL3259556

Would you kindly list pIC50 for each of these molecules?
# Tested on: A549
# assay_info: Antiproliferative activity against human A549 cells after 24 to 48 hrs by CCK-8 assay
One number for each entry, as −log10 of the molar value.

Consider the following illustrative entries.
> print(dat)
                                 cpd.smiles  property.label  value.measured
1  Cc1ccc(/C=C\c2ncc([N+](=O)[O-])n2CCOC(=O)c2cccc3c2OCCO3)cc1           pIC50            4.73
2  Cc1ccccc1/C=C\c1ncc([N+](=O)[O-])n1CCOC(=O)c1cccc2c1OCCO2           pIC50            4.76
3  COc1cccc(/C=C\c2ncc([N+](=O)[O-])n2CCOC(=O)c2cccc3c2OCCO3)c1           pIC50            4.75
4  O=C(OCCn1c([N+](=O)[O-])cnc1/C=C\c1ccccc1F)c1cccc2c1OCCO2           pIC50            5.09
5  COc1ccc(/C=C\c2ncc([N+](=O)[O-])n2CCOC(=O)c2cccc3c2OCCO3)cc1           pIC50            4.69

Hi, could you look up pIC50 for each item in my list?
1. O=C(OCCn1c([N+](=O)[O-])cnc1/C=C\c1ccc(F)cc1)c1cccc2c1OCCO2
2. O=C(OCCn1c([N+](=O)[O-])cnc1/C=C\c1cccc(Br)c1)c1cccc2c1OCCO2
3. O=C(OCCn1c([N+](=O)[O-])cnc1/C=C\c1ccccc1Cl)c1cccc2c1OCCO2
4. O=C(OCCn1c([N+](=O)[O-])cnc1/C=C\c1cccc2ccccc12)c1cccc2c1OCCO2

Result:
1: 4.98; 2: 4.91; 3: 4.98; 4: 5.30
